pIC50: −log10 of the molar value.
Record type: pIC50 measurement. Applies to: Acetylcholinesterase (Bos taurus)
EXPERIMENTAL ENDPOINT: pIC50

1. c1ccc(C(C[C@@H]2CCCN3CCCC[C@H]23)c2ccccc2)cc1; 5.17
2. N#Cc1ccc2c(c1)N(CCCN1CCC(O)CC1)c1ccccc1S2; 5.15
3. c1ccc(N(C[C@@H]2CCCN3CCCC[C@H]23)c2ccccc2)cc1; 5.05
4. COc1ccc2nc3cc(Cl)ccc3c(NC[C@@H]3CCCN4CCCC[C@H]34)c2c1; 5.14
5. O=C(CCCSC[C@@H]1CCCN2CCCC[C@H]12)N1c2ccccc2Sc2ccccc21; 5.17
6. C1=Cc2ccccc2N(C[C@@H]2CCCN3CCCC[C@H]23)c2ccccc21; 5.08
7. C1=Cc2ccccc2C(=C[C@@H]2CCCN3CCCC[C@H]23)c2ccccc21; 5.08
8. COc1ccc2nc3cc(Cl)ccc3c(NCCSC[C@@H]3CCCN4CCCC[C@H]34)c2c1; 6.08
9. O=c1ccc2cc(OCCCNC[C@@H]3CCCN4CCCC[C@H]34)ccc2o1; 5.18
10. O=C(CCCCSC[C@@H]1CCCN2CCCC[C@H]12)N1c2ccccc2Sc2ccccc21; 5.24
11. O=c1ccc2cc(OCCCCSC[C@@H]3CCCN4CCCC[C@H]34)ccc2o1; 5.92
12. COc1ccc2nc3cc(Cl)ccc3c(NCCCSC[C@@H]3CCCN4CCCC[C@H]34)c2c1; 6.66
13. O=c1ccc2cc(OCCCSC[C@@H]3CCCN4CCCC[C@H]34)ccc2o1; 5.27
14. O=c1ccc2cc(OCCCCCSC[C@@H]3CCCN4CCCC[C@H]34)ccc2o1; 6.17
15. c1ccc2c(c1)Sc1ccccc1C2C[C@@H]1CCCN2CCCC[C@H]12; 5.15

====

pIC50: −log10 of the molar value.
What follows is a record of pIC50 for Cholinesterase (Equus caballus, UniProt P81908).
EXPERIMENTAL ENDPOINT: pIC50

1. c1ccc2c(c1)CCc1ccccc1N2CSC[C@@H]1CCCN2CCCC[C@H]12; 6.07
2. c1ccc2c(c1)Sc1ccccc1N2C[C@@H]1CCCN2CCCC[C@H]12 [LUPINYLPHENOTHIAZINE]; 5.70
3. c1ccc2c(c1)CCc1ccccc1N2C[C@@H]1CCCN2CCCC[C@H]12; 5.66
4. CCN(CC)C(C)CN1c2ccccc2Sc2ccccc21 (stereo not given) [ETHOPROPAZINE]; 6.14
5. C(=C1c2ccccc2CCc2ccccc21)[C@@H]1CCCN2CCCC[C@H]12; 5.38

====

- MEASURED TARGET: Cholinesterase (Equus caballus)
Quick rule for you: IC50 under 2 µM gets condition met, anything else gets condition not met.

1) O=C(CCCSC[C@@H]1CCCN2CCCC[C@H]12)N1c2ccccc2Sc2ccccc21; condition met
2) c1ccc2c(c1)Cc1ccccc1N2C[C@@H]1CCCN2CCCC[C@H]12; condition met
3) c1ccc(N(C[C@@H]2CCCN3CCCC[C@H]23)c2ccccc2)cc1; condition not met
4) C1=Cc2ccccc2N(C[C@@H]2CCCN3CCCC[C@H]23)c2ccccc21; condition not met
5) C[N+]12CCCC[C@@H]1[C@H](CC1c3ccccc3Sc3ccccc31)CCC2 (stereo not given in full); condition met
6) c1ccc(C(SC[C@@H]2CCCN3CCCC[C@H]23)c2ccccc2)cc1; condition not met
7) O=C(C[C@@H]1CCCN2CCCC[C@H]12)N1c2ccccc2Sc2ccccc21; condition not met
8) CC(SC[C@@H]1CCCN2CCCC[C@H]12)C(=O)N1c2ccccc2Sc2ccccc21 (stereo not given in full); condition met
9) O=C(CSC[C@@H]1CCCN2CCCC[C@H]12)N1c2ccccc2Sc2ccccc21; condition met
10) O=C(CCSC[C@@H]1CCCN2CCCC[C@H]12)N1c2ccccc2Sc2ccccc21; condition met

====

- MEASURED TARGET: Cholinesterase (Equus caballus, UniProt P81908)
- Sequence (P81908 whole entry): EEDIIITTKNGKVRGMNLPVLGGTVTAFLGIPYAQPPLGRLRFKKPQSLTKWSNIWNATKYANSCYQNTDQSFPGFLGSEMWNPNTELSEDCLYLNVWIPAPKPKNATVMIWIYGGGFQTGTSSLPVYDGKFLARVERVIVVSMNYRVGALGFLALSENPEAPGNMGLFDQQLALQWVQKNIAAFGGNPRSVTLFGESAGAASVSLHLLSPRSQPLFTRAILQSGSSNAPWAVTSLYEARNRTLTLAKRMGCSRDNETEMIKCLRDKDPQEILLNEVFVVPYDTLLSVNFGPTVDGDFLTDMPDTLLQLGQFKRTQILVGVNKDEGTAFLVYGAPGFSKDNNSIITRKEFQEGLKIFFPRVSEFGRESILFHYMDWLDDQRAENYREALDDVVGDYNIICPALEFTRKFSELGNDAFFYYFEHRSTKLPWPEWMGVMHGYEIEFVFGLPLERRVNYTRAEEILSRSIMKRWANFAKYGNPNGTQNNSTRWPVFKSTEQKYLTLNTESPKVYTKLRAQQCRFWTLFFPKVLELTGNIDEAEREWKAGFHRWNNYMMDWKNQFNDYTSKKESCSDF
Please note: IC50 exactly at 4000 nM is 0.0. Only values below 4000 nM get 1.0.

1) COc1ccc2c(c1)N(C(=O)CSC[C@@H]1CCCN3CCCC[C@H]13)c1ccccc1S2; 1.0
2) c1ccc(C(C[C@@H]2CCCN3CCCC[C@H]23)c2ccccc2)cc1; 0.0
3) COc1ccc2nc3cc(Cl)ccc3c(NCCCSC[C@@H]3CCCN4CCCC[C@H]34)c2c1; 1.0
4) c1ccc2c(c1)Sc1ccccc1N2C1CN2CCC1CC2 (stereo not given); 1.0
5) C(=C(c1ccccc1)c1ccccc1)[C@@H]1CCCN2CCCC[C@H]12; 1.0
6) N#Cc1ccc2c(c1)N(CCCN1CCC(O)CC1)c1ccccc1S2 [PERICIAZINE]; 1.0
7) c1ccc2c(c1)c1ccccc1n2C[C@@H]1CCCN2CCCC[C@H]12; 1.0
8) COc1ccc2nc3cc(Cl)ccc3c(SC[C@@H]3CCCN4CCCC[C@H]34)c2c1; 0.0
9) O=C(C[C@H]1CCCN2CCCC[C@H]12)N1c2ccccc2Sc2ccccc21; 0.0
10) COc1ccc2nc3cc(Cl)ccc3c(NCCSC[C@@H]3CCCN4CCCC[C@H]34)c2c1; 1.0

====

- MEASURED TARGET: Acetylcholinesterase (Homo sapiens, UniProt P22303)
- Sequence (P22303 whole entry): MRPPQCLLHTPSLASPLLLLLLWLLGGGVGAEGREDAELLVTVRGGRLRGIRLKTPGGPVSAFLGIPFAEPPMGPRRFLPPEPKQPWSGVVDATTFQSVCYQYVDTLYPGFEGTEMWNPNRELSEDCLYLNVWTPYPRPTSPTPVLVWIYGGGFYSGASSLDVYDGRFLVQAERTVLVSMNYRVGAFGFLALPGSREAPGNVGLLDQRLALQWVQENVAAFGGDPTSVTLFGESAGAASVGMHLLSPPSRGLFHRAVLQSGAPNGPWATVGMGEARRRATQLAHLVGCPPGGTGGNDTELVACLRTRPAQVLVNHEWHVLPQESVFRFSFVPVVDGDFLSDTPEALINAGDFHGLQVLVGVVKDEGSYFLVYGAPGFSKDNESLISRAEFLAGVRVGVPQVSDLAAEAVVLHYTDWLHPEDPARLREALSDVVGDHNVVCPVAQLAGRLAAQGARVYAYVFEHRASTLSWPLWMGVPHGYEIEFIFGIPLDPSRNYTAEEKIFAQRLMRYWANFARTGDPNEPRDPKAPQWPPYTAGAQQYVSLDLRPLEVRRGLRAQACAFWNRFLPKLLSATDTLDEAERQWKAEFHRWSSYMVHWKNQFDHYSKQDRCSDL
pIC50: −log10 of the molar value.
EXPERIMENTAL ENDPOINT: pIC50

1. CN(C)CC(C)(C)c1cccc(OC(=O)NCCCCN2CCOCC2)c1; 4.00

====

- METHOD SUMMARY: Selectivity index, ratio of IC50 for bovine erythrocyte AChE to IC50 for Equine serum BChE
EXPERIMENTAL ENDPOINT: Ratio IC50

1) COc1ccc2nc3cc(Cl)ccc3c(NC[C@@H]3CCCN4CCCC[C@H]34)c2c1; 8.4
2) O=c1ccc2cc(OCCCSC[C@@H]3CCCN4CCCC[C@H]34)ccc2o1; 0.06
3) O=c1ccc2cc(OCCCCCSC[C@@H]3CCCN4CCCC[C@H]34)ccc2o1; 0.12
4) c1ccc2c(c1)Sc1ccccc1C2C[C@@H]1CCCN2CCCC[C@H]12; 47
5) C1=Cc2ccccc2N(C[C@@H]2CCCN3CCCC[C@H]23)c2ccccc21; 3.8
6) N#Cc1ccc2c(c1)N(CCCN1CCC(O)CC1)c1ccccc1S2; 30
7) COc1ccc2nc3cc(Cl)ccc3c(NCCCSC[C@@H]3CCCN4CCCC[C@H]34)c2c1; 0.32
8) c1ccc(N(C[C@@H]2CCCN3CCCC[C@H]23)c2ccccc2)cc1; 1.1
9) c1ccc(C(C[C@@H]2CCCN3CCCC[C@H]23)c2ccccc2)cc1; 1.2
10) C1=Cc2ccccc2C(=C[C@@H]2CCCN3CCCC[C@H]23)c2ccccc21; 4.1
11) O=c1ccc2cc(OCCCCSC[C@@H]3CCCN4CCCC[C@H]34)ccc2o1; 0.28
12) COc1ccc2nc3cc(Cl)ccc3c(NCCSC[C@@H]3CCCN4CCCC[C@H]34)c2c1; 2.5
13) O=C(CCCSC[C@@H]1CCCN2CCCC[C@H]12)N1c2ccccc2Sc2ccccc21; 9.2
14) O=C(CCCCSC[C@@H]1CCCN2CCCC[C@H]12)N1c2ccccc2Sc2ccccc21; 6.4

====

- MEASURED TARGET: Cholinesterase (Equus caballus, UniProt P81908)
In plain terms, low IC50, meaning strictly below 1000 nM, gives Fulfilled, and everything else gives Not fulfilled.

1) O=c1ccc2cc(OCCCCCSC[C@@H]3CCCN4CCCC[C@H]34)ccc2o1; Not fulfilled
2) C[N+]12CCCC[C@@H]1[C@H](CN1c3ccccc3Sc3ccccc31)CCC2 (stereo not given in full); Fulfilled
3) c1ccc2c(c1)[Se]c1ccccc1N2C[C@@H]1CCCN2CCCC[C@H]12; Not fulfilled
4) C1=Cc2ccccc2C(=C[C@@H]2CCCN3CCCC[C@H]23)c2ccccc21; Not fulfilled
5) C(=C1c2ccccc2Sc2ccccc21)[C@@H]1CCCN2CCCC[C@H]12; Fulfilled
6) c1ccc2c(c1)-c1ccccc1C2C[C@@H]1CCCN2CCCC[C@H]12; Fulfilled
7) COc1ccc2nc3cc(Cl)ccc3c(NC[C@@H]3CCCN4CCCC[C@H]34)c2c1; Fulfilled
8) c1ccc2c(c1)Sc1ccccc1C2C[C@@H]1CCCN2CCCC[C@H]12; Fulfilled
9) OC1(C[C@@H]2CCCN3CCCC[C@H]23)c2ccccc2Sc2ccccc21; Fulfilled
10) c1ccc2c(c1)-c1ccccc1C2C[C@H]1CCCN2CCCC[C@H]12; Not fulfilled

====

Hi! I'm sharing some pIC50 results obtained with UniProt:P81908.
pIC50: −log10 of the molar value.
EXPERIMENTAL ENDPOINT: pIC50

1) FC(F)(F)c1ccc2c(c1)N(C[C@@H]1CCCN3CCCC[C@H]13)c1ccccc1S2; 5.40
2) c1ccc2c(c1)Oc1ccccc1N2C[C@@H]1CCCN2CCCC[C@H]12; 5.66
3) c1ccc2c(c1)[Se]c1ccccc1N2C[C@H]1CCCN2CCCC[C@H]12; 6.06
4) O=c1ccc2cc(OCCCCSC[C@@H]3CCCN4CCCC[C@H]34)ccc2o1; 5.37
5) CN1CCCC(CC2c3ccccc3Sc3ccccc32)C1 (stereo not drawn) [METHIXENE]; 5.80
6) O=C(CCCCSC[C@@H]1CCCN2CCCC[C@H]12)N1c2ccccc2Sc2ccccc21; 6.05
7) O=c1ccc2cc(OCCCSC[C@@H]3CCCN4CCCC[C@H]34)ccc2o1; 5.27
8) CCN(CC)C(C)C(=O)N1c2ccccc2Sc2ccccc21 (stereo not drawn); 6.08
